Values compiled from the supplement of paper PMC6555819.

# Tested on: RARb homodimer (NR concentration 270 nM)
# Method Summary: PBM binding z-score (relative to random genomic background probes); higher = stronger binding; sequences stand for … in GC…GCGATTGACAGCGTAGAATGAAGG
Measured Property: PBM binding z-score

[
  {
    "Biopolymer Sequence": "CCTGCTAGGTCAATGGTCAACTAAAGCAGCTCGC",
    "PBM binding z-score": 3.11
  },
  {
    "Biopolymer Sequence": "TCTTGTAGACCAGCAGGTTAAGAAAGCTGGCCAA",
    "PBM binding z-score": 0.0516
  },
  {
    "Biopolymer Sequence": "GGACCAAGGTGAATAGGTCGTTGATGAGTAGGCG",
    "PBM binding z-score": 1.93
  },
  {
    "Biopolymer Sequence": "TGAATGATGTTAAAGATCAGGGAACGTGGCGTCG",
    "PBM binding z-score": -0.832
  },
  {
    "Biopolymer Sequence": "CCTCGGAGGACAACAGGAAGTCAGAGCTGCCAGA",
    "PBM binding z-score": 0.0796
  }
]

Asked: Supply recorded PBM binding z-score for CTCGAAAGGCCGTGCTCAGGTGAGTATACCAAAC here.
Given back: 0.384

Asked: Supply recorded PBM binding z-score for CCTGCTGGGTCAATGGTCAGCTAAAGCAGCTCGC here.
Given back: 2.5

Asked: Supply recorded PBM binding z-score for CGAACTAGGGCAAGGACAGTGAATCTCCGCACGC here.
Given back: 0.945

Asked: Supply recorded PBM binding z-score for AGAATGAGGTTACCAAAGATCAGGGATACGCTTG here.
Given back: 1.07

Asked: Supply recorded PBM binding z-score for GCTCGGAGGACAAGTTCAGAGCTTTGTCCGTAGA here.
Given back: 1.38

Asked: Supply recorded PBM binding z-score for CCAGACAGGAGAAAGGTAACTCAGTCTGGTACGC here.
Given back: 0.0408

Asked: Supply recorded PBM binding z-score for TCTTGTAGATCAGCAGGTTAAAAAAGCTGGCCAA here.
Given back: 0.0977
